Origin of the recorded values: PubChem BioAssay (NCI)

TGI for assorted molecules
tested on: K-562 leukemia; assay: NCI tumour cell line growth inhibition, 48 h

molecule: O=C(O)CNC(=O)c1ccccc1O
TGI: > 100 µM
//
molecule: CC1(C)N(OC2CCCCO2)C(c2ccccc2)C(c2ccccc2)=[N+]1[O-] (stereo unspecified)
TGI: > 100 µM
//
molecule: CC(=O)Oc1ccc2ccc(=O)oc2c1OC(C)=O
TGI: > 100 µM
//
molecule: O=C(c1ccccn1)c1nnn2ccccc12
TGI: > 100 µM
//
molecule: CC1(C)Cc2cccc(OCC(O)CN3CCN(c4ccc(F)cc4)CC3)c2O1 (stereo unspecified)
TGI: > 50 µM
//
molecule: C[C@@H](C(=O)O)c1ccc(-c2ccccc2)c(F)c1
TGI: > 100 µM
